# system: SsOGT wild type (Sulfolobus solfataricus) (UniProt Q97VW7)
# Sequence: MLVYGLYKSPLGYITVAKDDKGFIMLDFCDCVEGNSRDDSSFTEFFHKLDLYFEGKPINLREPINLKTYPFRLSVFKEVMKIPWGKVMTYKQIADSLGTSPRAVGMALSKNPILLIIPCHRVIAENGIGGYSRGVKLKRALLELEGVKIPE
# method: competition
# condition_parameters: O6-methylguanine at position 26 of strand 1; EMSA: 0-25 uM protein, 0.2 uM probe, 37 C 10 min, 10 ul, buffer as ref. 17, 8% native PAGE in 1X TBE pH 8.3; competition: BG-VG assay, 50 C under ref. …
endpoint: pKi
One number for each entry, as −log10 of the molar value.

The value of pKi measured for the sequence GGCAGTAGGCCTAGCATGACAATCTGCATTGGTGATCACGG / CGCTCATCCACAATGCAGATTGTCATGCTAGGCCTACTGCC [ds-Fwdm26] turned out to be 6.08

Measured values drawn from paper PMC4605297 for this set.
